# Tested on: NCI-H460
# assayProtocol: NCI tumour cell line growth inhibition, 48 h
Active and inactive are the calls of the source. Rule as the data show it: active = GI50 up to about 1.1 µM and inactive = higher.
parameterMeasured: GI50

Would you please look over these solved cases?
[Q] Need GI50 of `CCN1CSC(=S)N(CC)C1` , thanks.
[A] 56.2 µM (inactive)

[Q] Need GI50 of `[N-]=[N+]=Nc1c(C=O)c(=O)n(-c2ccccc2)c2ccccc12` , thanks.
[A] 29.6 µM (inactive)

[Q] Need GI50 of `O=c1[nH]c(=O)n(COCCO)c2ccsc12` , thanks.
[A] > 100 µM (inactive)

[Q] Need GI50 of COc1ccccc1-c1csc(CCC(N)C(=O)O)n1 (stereo not given) , thanks.
[A] > 100 µM (inactive)

[Q] Need GI50 of `CCCCCCNC(=O)c1cc(NCc2cc(OC)ccc2OC)ccc1O` , thanks.
[A] 24.7 µM (inactive)

[Q] Need GI50 of `O=C1C=C(Nc2ccc(Br)cc2)c2ccccc2C1=O` , thanks.
[A] 7.28 µM (inactive)

Could I get GI50 for every one of these entries?
1. CN(C)CCC(=O)N1CCc2c([nH]c3ccccc23)C1c1cccnc1 (stereo not given)
2. O=C(NC(=O)c1cn(CCN(CCO)C(=O)NCCCCCCNC(=O)N(CCO)CCn2cc(C(=O)NC(=O)OCc3ccccc3)c(=O)[nH]c2=O)c(=O)[nH]c1=O)OCc1ccccc1
3. Cc1ccc(/N=N/c2c(O)ccc3cc(S(=O)(=O)O)cc(S(=O)(=O)O)c23)cc1
4. COc1cc(OC)cc(-c2cc(O)c3cc4c(cc3n2)OCO4)c1
5. COC(=O)c1cc2ccc(O)c(O)c2cn1
6. O=C(O)CNC(=O)CO/N=C1/C(=C2/C(=O)Nc3ccccc32)Nc2ccccc21
7. CC(C)(C)c1cc(CCC(=O)Nc2ccc(Cl)cc2)nc(NC#N)n1
8. COC(=O)Cc1c([C@H]2[C@H](CC(=O)OC)c3ccccc3N2C(C)=O)[nH]c2ccccc12

[A]
1: > 100 µM (inactive); 2: > 100 µM (inactive); 3: > 100 µM (inactive); 4: 0.26 µM (active); 5: 19 µM (inactive); 6: > 100 µM (inactive); 7: > 100 µM (inactive); 8: 96.8 µM (inactive)
